Origin of measurements: patent US11753373B2

This section presents molecules with their documented Tmax values.
test: in vivo; conditions: female, Balb/c, mouse, po, 40 mg/kg
Observed property: Tmax (min)

[[record]]
molecule = "CC(C)C[C@H](NC(=O)c1cc2c(F)cccc2[nH]1)C(=O)N[C@H](C#N)C[C@@H]1CCNC1=O"
measurement = 60

[[record]]
molecule = "CC(C)C[C@H](NC(=O)c1cc2ccccc2[nH]1)C(=O)N[C@@H](C[C@@H]1CCNC1=O)C(O)S(=O)(=O)[O-].[Na+] (stereo partly shown)"
measurement = 30

[[record]]
molecule = "CC(C)C[C@H](NC(=O)c1cc2c(F)cccc2[nH]1)C(=O)N[C@@H](C[C@@H]1CCNC1=O)C(=O)CO"
measurement = 15

[[record]]
molecule = "CC(C)C[C@H](NC(=O)c1cc2ccccc2[nH]1)C(=O)N[C@H](C=O)C[C@@H]1CCNC1=O"
measurement = 180


====

assay type: in vitro ADME; conditions: extraction ratio, compound at 1 uM, mouse liver microsomes 0.5 mg/mL
This section presents molecules with their documented Liver Microsomal Stability (ER) Mouse values.
Observed property: Liver Microsomal Stability (ER) Mouse

[[record]]
input_smiles = "C=CC(=O)N[C@H](C[C@@H]1CCNC1=O)NC(=O)[C@@H]1[C@@H]2[C@H](CN1C(=O)[C@@H](NC(=O)C(F)(F)F)C(C)(C)C)C2(C)C"
measurement = "−0.04"

[[record]]
input_smiles = "COc1cccc2[nH]c(C(=O)N[C@@H](CC(C)C)C(=O)N[C@@H](C[C@@H]3CCNC3=O)C(=O)CCl)cc12"
measurement = 0.84

[[record]]
input_smiles = "CC(C)C[C@H](NC(=O)c1cc2c(F)cccc2[nH]1)C(=O)N[C@@H](C[C@@H]1CCNC1=O)C(=O)CO"
measurement = 0.23

[[record]]
input_smiles = "CC(C)C[C@H](NC(=O)c1cc2ccccc2[nH]1)C(=O)N1C[C@H]2[C@@H]([C@H]1C(=O)N[C@H](C=O)C(C)(C)C)C2(C)C"
measurement = 0.78

[[record]]
input_smiles = "CC(C)(C)[C@H](NC(=O)C(F)F)C(=O)N1C[C@H]2[C@@H]([C@H]1C(=O)N[C@H](C#N)C[C@@H]1CCNC1=O)C2(C)C"
measurement = 0.26

[[record]]
input_smiles = "COc1cccc2[nH]c(C(=O)N[C@@H](CC(C)C)C(=O)N[C@@H](C[C@@H]3CCNC3=O)C(=O)CO)cc12"
measurement = 0.38


====

tested on: SARS-CoV-2; test: Anti-viral in vitro PRNT assay in Vero E6 cells; assay type: cell-based; details: Vero E6 cells, 1000 pfu, 3 days, plaque reduction
Observed property: anti-SARS-CoV2 (PRNT) in Vero E6 EC50 (μM)

[[record]]
molecule = "COC(=O)[C@H](C[C@@H]1CCNC1=O)NC(=O)[C@H](CC(C)C)NC(=O)c1cc2ccccc2[nH]1 [Compound A-1-a]"
measurement = "inactive"

[[record]]
molecule = "C=CC(=O)N[C@H](C[C@@H]1CCNC1=O)NC(=O)[C@@H]1[C@@H]2[C@H](CN1C(=O)[C@@H](NC(=O)C(F)(F)F)C(C)(C)C)C2(C)C [Compound D-1-e]"
measurement = "inactive"

[[record]]
molecule = "CC(C)C[C@H](NC(=O)C(F)F)C(=O)N1C[C@H]2[C@@H]([C@H]1C(=O)N[C@H](C=O)C[C@@H]1CCNC1=O)C2(C)C [Compound H-1-a]"
measurement = "inactive"

